experiment: Plasma drug exposure, individual non-compartmental analysis (days 0 and 28 pooled); assay type: in vivo, human; conditions: human, in vivo, 8-week cures (n=14); median (5th-95th percentile); read-out: Median AUClast
QUANTITY_NAME: AUC(0-t) (ng·h/mL)
Could you give me the number in ng·h/mL? Just the number is fine.

Req: What measured AUC(0-t) goes with `CC(C)OC(=O)[C@H](C)N[P@](=O)(OC[C@H]1O[C@@H](n2ccc(=O)[nH]c2=O)[C@](C)(F)[C@@H]1O)Oc1ccccc1` ?
Resp: 2120

----------
assay: Plasma pharmacokinetics, naïve pooled non-compartmental analysis (days 0 and 28); type: in vivo, human; design: concentration or dose not given beside the values; conditions: human, plasma, po, Day 0; extrapolated to infinity
QUANTITY_NAME: AUC(0-inf) (ng·h/mL)
Could you give me the number in ng·h/mL? Just the number is fine.

Req: What measured AUC(0-inf) goes with `COC(=O)N[C@H](C(=O)N1CCC[C@H]1c1nc(-c2ccc(-c3ccc(-c4c[nH]c([C@@H]5CCCN5C(=O)[C@@H](NC(=O)OC)C(C)C)n4)cc3)cc2)c[nH]1)C(C)C` ?
Resp: 12800
